Tested on: Wnt activity (Sp5-Luc reporter, SW480 colon carcinoma cells)
Test: Wnt activity screening assay: Sp5-Luc reporter gene assay in SW480 cells
Type: cell-based
Settings: Homo sapiens, SW480 cells, overnight incubation

Smiles representation	EC50
c1csc(-c2ccnc3[nH]c(-c4n[nH]c5ccc(-c6cncnc6)nc45)cc23)c1	> 10 µM
Fc1cccc(-c2ccnc3[nH]c(-c4n[nH]c5ccc(-c6cccnc6)nc45)cc23)c1	> 10 µM
O=C(Nc1cncc(-c2ccc3[nH]nc(-c4cc5c(-c6ccc(F)cc6)ccnc5[nH]4)c3n2)c1)c1ccccc1	> 10 µM
CN(C)c1cncc(-c2ccc3[nH]nc(-c4cc5c(-c6cccnc6)ccnc5[nH]4)c3n2)c1	> 10 µM
Cc1ccncc1-c1ccc2[nH]nc(-c3cc4c(-c5ccc(F)cc5)ccnc4[nH]3)c2n1	> 10 µM
c1ncc(-c2ccc3[nH]nc(-c4cc5c(N6CCCCC6)ccnc5[nH]4)c3n2)cn1	> 10 µM
c1cncc(-c2ccnc3[nH]c(-c4n[nH]c5ccc(-c6ccncc6)nc45)cc23)c1	> 10 µM
Fc1cccc(-c2ccnc3[nH]c(-c4n[nH]c5ccc(-c6cncc(OCc7ccccc7)c6)nc45)cc23)c1	> 10 µM
Nc1cncc(-c2ccc3[nH]nc(-c4cc5c(-c6ccncc6)ccnc5[nH]4)c3n2)c1	> 10 µM
c1cc(-c2ccnc3[nH]c(-c4n[nH]c5ccc(-c6cncc(CNCC7CCCC7)c6)nc45)cc23)ccn1	> 10 µM
Fc1cccc(-c2ccnc3[nH]c(-c4n[nH]c5ccc(-c6cncc(CN7CCCCC7)c6)nc45)cc23)c1	> 10 µM
O=C(Nc1cncc(-c2ccc3[nH]nc(-c4cc5cccnc5[nH]4)c3n2)c1)C1CCCCC1	> 10 µM
c1cncc(-c2ccc3[nH]nc(-c4cc5c(-c6cccnc6)ccnc5[nH]4)c3n2)c1	> 10 µM
c1cc(-c2ccnc3[nH]c(-c4n[nH]c5ccc(-c6cncc(OCCN7CCCC7)c6)nc45)cc23)ccn1	> 10 µM
c1cc(-c2ccnc3[nH]c(-c4n[nH]c5ccc(-c6cncc(CN7CCCCC7)c6)nc45)cc23)ccn1	> 10 µM
Fc1ccc(-c2ccnc3[nH]c(-c4n[nH]c5ccc(-c6cncnc6)nc45)cc23)cc1	> 10 µM
c1cc(N2CCCCC2)c2cc(-c3n[nH]c4ccc(-c5cncc(CN6CCCCC6)c5)nc34)[nH]c2n1	> 10 µM

----------
System: IL-6 (THP-1 cells)
Experiment: IL-6 inhibition in LPS-stimulated THP-1 cells (HTRF)
Format: cell-based
Settings: Homo sapiens; THP-1 cells, LPS 500 ng/mL, 22 hours, IL6 HTRF
Parameter: EC50

Smiles representation	Target	Measurement
Cc1ccncc1-c1ccc2[nH]nc(-c3cc4c(-c5ccncc5)ccnc4[nH]3)c2n1	IL-6 (THP-1 cells)	> 10 µM
Oc1cncc(-c2ccc3[nH]nc(-c4cc5c(-c6ccc(F)cc6)ccnc5[nH]4)c3n2)c1	IL-6 (THP-1 cells)	> 10 µM
CN(C)CCNc1cc(F)cc(-c2ccnc3[nH]c(-c4n[nH]c5ccc(-c6ccncc6)nc45)cc23)c1	IL-6 (THP-1 cells)	> 10 µM
